These data points were gathered from patent US20240067729A1.

# target.system: T1, human PD-L1 expressed on cells (HCC827, NCI-H292, CHO-PD-L1, engineered CHO-K1) (human, UniProt Q9NZQ7 19-290)
# T1 construct: whole, on cells; Endogenous on the human lung lines HCC827 and NCI-H292; transfected on CHO cells; also called PD-L1 on HCC827; PD-L1 on NCI-H292
# T1 sequence (Q9NZQ7 19-290, change not shown): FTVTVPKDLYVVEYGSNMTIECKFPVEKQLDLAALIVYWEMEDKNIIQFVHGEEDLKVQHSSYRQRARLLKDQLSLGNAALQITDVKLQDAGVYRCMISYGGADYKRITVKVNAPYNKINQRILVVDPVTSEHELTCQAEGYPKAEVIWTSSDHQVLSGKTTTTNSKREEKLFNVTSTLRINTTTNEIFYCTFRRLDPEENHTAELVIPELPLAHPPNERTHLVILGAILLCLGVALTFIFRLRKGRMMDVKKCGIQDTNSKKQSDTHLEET
# test.method.notes: flow cytometry on HCC827 cells, apparent Kd
property.measured: Kd (nM)
Quick reminder: number only, in nM, skip the unit.

Hello, please tell me recorded Kd for this one: 771-hIgG1 (chimeric PAL771) (antibody, V domains shown) VH: EVQLQESGAELVKPGASVKLSCTASGFNIKDTYMHWVKQRPEQGLEWIGRIDPANGNTKYDPKFPGKATITADTSSNTAYLQLSSLTSEDAAVYYCARPFNYRFYDVYYFDYWGQGTTLTVST VL: QIVLTQSPAIMSASPGEKVTMTCSASSSVSYMYWYQQKPGSSPRLLIYDTSNLASGVPLRFSGSGSGTSYSLTLSRMEAEDAATYYCQQWSTYPLTFGAGTKLELK
1.02
